Target: T1, NLpoly11S
T1 chain: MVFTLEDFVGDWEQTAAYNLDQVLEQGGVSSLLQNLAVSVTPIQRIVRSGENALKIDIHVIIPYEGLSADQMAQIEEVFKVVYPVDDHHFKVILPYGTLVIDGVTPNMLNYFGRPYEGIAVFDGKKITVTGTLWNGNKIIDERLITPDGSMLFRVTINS
Assay: luminescence complementation titration (E. coli lysate NLpoly, synthetic NLpep), one site-specific binding fit
property-name: Kd

{"columns": ["binder", "value-observed"],
 "data": [
  ["VSGWRLFKKIS (modifications not checked) [NLpep86]", "< 1 nM"]
]}

# evaluate next
binder VSGWRLFKKISN (modifications not checked) [NLpep80] , Kd observed: < 1 nM
